# experiment-summary: NCI Yeast Anticancer Drug Screen. Data for the mec2-1 strain (AID 157)
# condition-details: S. cerevisiae mec2-1 strain, at 50.0 µM, hits give high values
Compounds without any hit were thinned out: in the full panel of roughly 79,000, 15% have a hit.
Here, each record is paired with measured growth inhibition data.
measure: growth inhibition (%)

- CCOC(=O)C(O)(NC(=O)Nc1ccc(F)cc1)C(F)(F)F (stereo not given): -22.3
- COc1ccc(/C=c2\sc3n(c2=O)C(N)=C(C#N)C(c2ccc(OC)cc2)C=3c2nc3ccccc3[nH]2)cc1 (stereo not given): -13.2
- CC[N+](C)(CC)CCOc1nc2c(c(=O)n(C)c(=O)n2C)n1C: -6.85
- O=c1[nH]cnc2nn(C3OC(CO)C(O)C3O)nc12 (stereo not given): 11.5
- c1ccc2c(c1)cc1n2CCc2c-1[nH]c1ccccc21: 18.6
- COc1ccc(NC(=O)C(=O)C(C(=O)c2ccccc2)C2OC(=O)c3ccccc32)c([N+](=O)[O-])c1 (stereo not given): 5.6
- Cc1cc(C)c2c(=O)n(-c3ccc(Br)cc3)c(=S)n(-c3ccc(Br)cc3)c2n1: 4.35
- O=C(CN1C(=O)c2ccccc2C1=O)OCC(=O)c1ccccc1: 12.4
- CC(C)(c1cccs1)c1cscc1C(=O)O: -6.8
- CC(=O)N(c1ccc(F)c(F)c1)c1ccc(F)c(F)c1: -5.55

Values from PubChem BioAssay (NCI)
